// values below are reported Population Fragmented Nuclei (%)
Tested on: Fibroblast
ASSAY: Multiplex assay against human fibroblast
Format: toxicity, cell-based
MEASUREMENT_SETUP: 24 h, 10 µM, compound concentration 10 uM, replicate 1
The answer is to be given in %; state only the numeric part.

Worked set:
Q. What value of Population Fragmented Nuclei (%) has been reported for the following molecule? CC[C@@H](C)Nc1nc(C)nc2c(-c3ccc(OC)nc3C)c(C)nn12 [PEXACERFONT]
A. 16

Q. What value of Population Fragmented Nuclei (%) has been reported for the following molecule? O=C1[C@H](Cc2ccc(O)cc2)N2C(=O)CCN(C(=O)NCc3ccccc3)[C@H]2CN1Cc1cccc2ccccc12
A. 15

Q. What value of Population Fragmented Nuclei (%) has been reported for the following molecule? Cc1noc(-c2ccc(-c3ccc(CC(=O)O)cc3)cc2)c1NC(=O)O[C@H](C)c1ccccc1Cl
A. 20

Q. What value of Population Fragmented Nuclei (%) has been reported for the following molecule? CN1CCN(c2cc(-c3ccccc3)nc(N)n2)CC1
A. 12

Q. What value of Population Fragmented Nuclei (%) has been reported for the following molecule? CC(C)(C)c1cc(NC(=O)Nc2ccc(-c3cn4c(n3)sc3cc(OCCN5CCOCC5)ccc34)cc2)no1 [QUIZARTINIB]
A. 33

Q. What value of Population Fragmented Nuclei (%) has been reported for the following molecule? COC[C@@H](c1ccc(C(F)(F)F)cc1)N1CCN(C2(C)CCN(C(=O)c3c(C)ncnc3C)CC2)C[C@@H]1C.O=C(O)/C=C\C(=O)O [VICRIVIROC MALEATE]
A. 23

Q. What value of Population Fragmented Nuclei (%) has been reported for the following molecule? CC(=O)Nc1cccc2c1c(Sc1ccc(Cl)cc1)c(C)n2CC(=O)O [AZD1981]
A. 13

Q. What value of Population Fragmented Nuclei (%) has been reported for the following molecule? Cc1onc(-c2ccccc2Cl)c1C(=O)N(C)c1ccc(Cl)cc1
A. 16

Consider the record given below.
Q. What value of Population Fragmented Nuclei (%) has been reported for the following molecule? O=C(CCCc1ccccc1)Nc1nc2ccccc2c(=O)s1
A. 19

---

// values below are reported Population Fragmented Nuclei (%)
Test system: U2OS
ASSAY: Multiplex assay against U2OS
Format: toxicity, cell-based
MEASUREMENT_SETUP: human, 48 h, 10 µM, compound concentration 10 uM, replicate 2
The answer is to be given in %; state only the numeric part.

Q. What value of Population Fragmented Nuclei (%) has been reported for the following compound? Br.CS(=O)(=O)Nc1c(O)ccc2c1CCCC2C1=NCCN1 (stereo not drawn)
A. 17

Consider the record given below.
Q. What value of Population Fragmented Nuclei (%) has been reported for the following compound? C[C@H](N)COC(=O)[C@@H](CCCCN)NC(=O)Cc1c(-c2ccc3ccccc3c2)[nH]c2c1ccc1ccccc12
A. 16

---

// values below are reported Population Mitochondria Different-Phenotype (%)
System: U2OS
ASSAY: Multiplex assay against U2OS
Format: toxicity, cell-based
MEASUREMENT_SETUP: human, 48 h, 10 µM, compound concentration 10 uM, replicate 1
Value and unit, in that order.

Q. What value of Population Mitochondria Different-Phenotype (%) has been reported for the following molecule? CCCOc1ccc2[nH]cc(C3=CCNCC3)c2n1.Cl
A. 2%

Q. What value of Population Mitochondria Different-Phenotype (%) has been reported for the following molecule? CC(/C=C1\SC(=S)N(CCCC(=O)Nc2ccc(C(=O)O)c(O)c2)C1=O)=C\c1ccccc1
A. 2%

Q. What value of Population Mitochondria Different-Phenotype (%) has been reported for the following molecule? CN[C@@H](C)C(=O)N[C@H](C(=O)N1CCC[C@H]1C(=O)Nc1snnc1-c1ccccc1)C1CCCCC1 [GDC-0152]
A. 39%

Q. What value of Population Mitochondria Different-Phenotype (%) has been reported for the following molecule? Cc1noc(-c2ccc(-c3ccc(CC(=O)O)cc3)cc2)c1NC(=O)O[C@H](C)c1ccccc1Cl
A. 3%

Q. What value of Population Mitochondria Different-Phenotype (%) has been reported for the following molecule? O=C(CCCc1ccccc1)Nc1nc2ccccc2c(=O)s1
A. 0%

New cases:
Q. What value of Population Mitochondria Different-Phenotype (%) has been reported for the following molecule? CN1CCN(c2cc(-c3ccccc3)nc(N)n2)CC1
A. 3%

Q. What value of Population Mitochondria Different-Phenotype (%) has been reported for the following molecule? Cc1cnc(-c2cc(N3CCN(C(=O)CCS(C)(=O)=O)CC3)ncc2Cl)c(C)c1
A. 2%

Q. What value of Population Mitochondria Different-Phenotype (%) has been reported for the following molecule? Cl.N=C(N)NC(=O)Cc1c(Cl)cccc1Cl [GUANFACINE HYDROCHLORIDE]
A. 3%

---

Test system: U2OS
ASSAY: Multiplex assay against U2OS
Format: toxicity, cell-based
MEASUREMENT_SETUP: human, 12 h, 1 µM, compound concentration 1 uM, replicate 2
// values below are reported Population Normal (%)
The answer is to be given in %; state only the numeric part.

Worked set:
Q. What value of Population Normal (%) has been reported for the following molecule? CN1CCN(c2cc(-c3ccccc3)nc(N)n2)CC1
A. 98

Q. What value of Population Normal (%) has been reported for the following molecule? CN[C@@H](C)C(=O)N[C@H](C(=O)N1CCC[C@H]1C(=O)Nc1snnc1-c1ccccc1)C1CCCCC1 [GDC-0152]
A. 88

Q. What value of Population Normal (%) has been reported for the following molecule? C[C@H](N)COC(=O)[C@@H](CCCCN)NC(=O)Cc1c(-c2ccc3ccccc3c2)[nH]c2c1ccc1ccccc12
A. 99

Q. What value of Population Normal (%) has been reported for the following molecule? Cc1onc(-c2ccccc2Cl)c1C(=O)N(C)c1ccc(Cl)cc1
A. 98

Q. What value of Population Normal (%) has been reported for the following molecule? CCCCC(=O)N(Cc1ccc(-c2ccccc2-c2nnn[nH]2)cc1)[C@H](C(=O)O)C(C)C
A. 96

New cases:
Q. What value of Population Normal (%) has been reported for the following molecule? CCCOc1ccc2[nH]cc(C3=CCNCC3)c2n1.Cl
A. 98

Q. What value of Population Normal (%) has been reported for the following molecule? Cl.N=C(N)NC(=O)Cc1c(Cl)cccc1Cl [GUANFACINE HYDROCHLORIDE]
A. 97

Q. What value of Population Normal (%) has been reported for the following molecule? CN(C)C(=O)Cn1cc(-c2ccc(-c3cncc4ccccc34)cc2)cn1
A. 99

Q. What value of Population Normal (%) has been reported for the following molecule? CCc1cc2cc(NS(=O)(=O)c3ccc(C#N)cc3)ccc2n(CC)c1=O
A. 98

Q. What value of Population Normal (%) has been reported for the following molecule? COc1ccccc1N1CCN(C[C@@H](C(=O)NC(C)(C)C)c2ccccc2)CC1.Cl.Cl
A. 98

Q. What value of Population Normal (%) has been reported for the following molecule? CC(C)c1noc(N2CCC(COc3ccc(-c4ccc(S(C)(=O)=O)cc4)nc3)CC2)n1 [GSK-1292263]
A. 98

Q. What value of Population Normal (%) has been reported for the following molecule? CC(/C=C1\SC(=S)N(CCCC(=O)Nc2ccc(C(=O)O)c(O)c2)C1=O)=C\c1ccccc1
A. 95

Q. What value of Population Normal (%) has been reported for the following molecule? CC(C)(C)c1cc(NC(=O)Nc2ccc(-c3cn4c(n3)sc3cc(OCCN5CCOCC5)ccc34)cc2)no1 [QUIZARTINIB]
A. 98

---

Test system: U2OS
ASSAY: Multiplex assay against U2OS
Type: toxicity, cell-based
MEASUREMENT_SETUP: human, 12 h, 1 µM, compound concentration 1 uM, replicate 1
// values below are reported Population Apoptotic (%)

Worked set:
Q. # value lookup — system U2OS, readout Population Apoptotic (%), item CC(C)COc1ccc(CNC(=O)N(Cc2ccc(F)cc2)C2CCN(C)CC2)cc1
A. 84%

Q. # value lookup — system U2OS, readout Population Apoptotic (%), item C[C@H](N)COC(=O)[C@@H](CCCCN)NC(=O)Cc1c(-c2ccc3ccccc3c2)[nH]c2c1ccc1ccccc12
A. 73%

Q. # value lookup — system U2OS, readout Population Apoptotic (%), item CCCCC1=NC2(CCCC2)C(=O)N1Cc1ccc(-c2ccccc2-c2nnn[nH]2)cc1
A. 83%

Consider the record given below.
Q. # value lookup — system U2OS, readout Population Apoptotic (%), item COc1ccccc1N1CCN(C[C@@H](C(=O)NC(C)(C)C)c2ccccc2)CC1.Cl.Cl
A. 73%

---

// values below are reported Population Apoptotic (%)
Test system: HEK-293T
ASSAY: Multiplex assay against HEK293T
Type: toxicity, cell-based
MEASUREMENT_SETUP: human, 12 h, 10 µM, compound concentration 10 uM, replicate 2
The answer is to be given in %; state only the numeric part.

Q. What value of Population Apoptotic (%) has been reported for the following compound? Cl.N=C(N)NC(=O)Cc1c(Cl)cccc1Cl [GUANFACINE HYDROCHLORIDE]
A. 34

Q. What value of Population Apoptotic (%) has been reported for the following compound? CC(C)c1noc(N2CCC(COc3ccc(-c4ccc(S(C)(=O)=O)cc4)nc3)CC2)n1
A. 43

Q. What value of Population Apoptotic (%) has been reported for the following compound? CCCOc1ccc2[nH]cc(C3=CCNCC3)c2n1.Cl
A. 55

New cases:
Q. What value of Population Apoptotic (%) has been reported for the following compound? CCCCC(=O)N(Cc1ccc(-c2ccccc2-c2nnn[nH]2)cc1)[C@H](C(=O)O)C(C)C
A. 51

Q. What value of Population Apoptotic (%) has been reported for the following compound? CCc1cc2cc(NS(=O)(=O)c3ccc(C#N)cc3)ccc2n(CC)c1=O
A. 65

Q. What value of Population Apoptotic (%) has been reported for the following compound? CCCCCC(O)/C=C/[C@H]1C(=O)CC(O)C1C/C=C\CCCC(=O)O (some centres not stated)
A. 54

Q. What value of Population Apoptotic (%) has been reported for the following compound? Cc1cnc(-c2cc(N3CCN(C(=O)CCS(C)(=O)=O)CC3)ncc2Cl)c(C)c1
A. 45

Q. What value of Population Apoptotic (%) has been reported for the following compound? O=C(NCCN1CCC(n2c(=O)[nH]c3cc(Cl)ccc32)CC1)c1ccc(F)cc1 [HALOPEMIDE]
A. 65

Q. What value of Population Apoptotic (%) has been reported for the following compound? Cc1cccc(NC(=O)CN2CCC(c3ccccn3)CC2)c1.Cl.Cl
A. 43

Q. What value of Population Apoptotic (%) has been reported for the following compound? Br.CS(=O)(=O)Nc1c(O)ccc2c1CCCC2C1=NCCN1 (configuration not stated)
A. 55

Q. What value of Population Apoptotic (%) has been reported for the following compound? Cc1c(CC(=O)O)c2cccnc2n1Cc1ccc(S(C)(=O)=O)cc1C(F)(F)F
A. 52
